System: ATP;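 note: ATP exposure 15 min at 22 °C before imaging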
protocol-text: switch fluorescence ratio, 500 uM ATP over buffer (Cy3 cluster intensity, sum of 5 cycles each) (fold (ratio)); higher = stronger signal-on switching upon ATP binding; sequences stand for … in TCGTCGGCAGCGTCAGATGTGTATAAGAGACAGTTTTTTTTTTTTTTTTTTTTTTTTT…TC
condition-notes: aptamer strand: ATP DNA aptamer (quencher-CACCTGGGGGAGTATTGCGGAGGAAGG + anchor), 100 nM annealed; ATP concentration: 500 uM
observable: switch fluorescence ratio

# query: switch fluorescence ratio of entry `CCAGCATGGG`
1.02

Now try `AGTCTAGGCG` .
0.985

`CATCTCGTTT` , same question.
1.02

Another sequence to check: `GAGTTTGTGT`
0.996

Do the same for `TTTGGTTCAG` please
0.994

Same read-out for `TCTCTTTCTG` ?
0.973

What about `TCGGGTTCTT` ?
1.02

Then this sequence: `GCCGGCTTTC`
1.01

Input `TAGTTGAGCT`
1

Now the same for `TTTATTAAGT`
1.01

One more sequence: `GGCCGTTTTC`
1.01

And the next one, `AAAGACGGTT` ?
0.997
